# system-name: human vasopressin V1a receptor (Homo sapiens, UniProt P37288)
# Sequence (P37288 whole entry): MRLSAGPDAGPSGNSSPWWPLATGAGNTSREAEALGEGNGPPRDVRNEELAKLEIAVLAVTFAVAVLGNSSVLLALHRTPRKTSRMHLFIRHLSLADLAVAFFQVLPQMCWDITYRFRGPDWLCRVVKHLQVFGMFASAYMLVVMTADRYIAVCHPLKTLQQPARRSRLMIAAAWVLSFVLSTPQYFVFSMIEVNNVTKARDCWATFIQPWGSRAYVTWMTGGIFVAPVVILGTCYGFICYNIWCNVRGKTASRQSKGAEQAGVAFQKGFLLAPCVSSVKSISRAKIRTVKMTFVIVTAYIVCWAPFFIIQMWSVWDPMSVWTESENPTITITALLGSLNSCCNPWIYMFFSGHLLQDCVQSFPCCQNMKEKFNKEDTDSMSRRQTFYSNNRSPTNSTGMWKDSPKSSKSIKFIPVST
# assay-remarks: Vasopressin V1a receptor binding assay
# assay-context: selectivity quotient, human V1a vs human V1b
property-measured: Ki(h-V1a)/Ki(h-V1b)

structure | reading
COc1ncccc1[C@]1(NC(=O)N2CCC(C3CCN(C4COC4)CC3)CC2)C(=O)N(S(=O)(=O)c2ccccc2)c2ccc(C#N)cc21 | ++ (25-75)
COc1cc(C)ccc1S(=O)(=O)N1C(=O)[C@@](NC(=O)N2CCN(C3CCN(C4COC4)CC3)CC2)(c2cccnc2OC)c2cc(C#N)ccc21 | +++ (>75)
CCOc1ncccc1[C@]1(NC(=O)N2CCC(N3C[C@@H]4C[C@H]3CN4C3COC3)CC2)C(=O)N(S(=O)(=O)c2ccc(OC)cc2OC)c2ccc(C#N)cc21 | ++ (25-75)
COc1ncccc1[C@]1(NC(=O)N2CCN(C3CCN(C4COC4)CC3)CC2)C(=O)N(S(=O)(=O)c2ccc(C#N)cc2)c2ccc(C#N)cc21 | + (10-<25)
CCOc1ncccc1[C@]1(NC(=O)N2CCN(C3CCN(C4COC4)CC3)CC2)C(=O)N(S(=O)(=O)c2ccc(OC)cc2OC)c2ccc(Cl)cc21 | +++ (>75)
CCOc1ncccc1[C@]1(NC(=O)N2CCN(C3CCN(C4COC4)CC3)CC2)C(=O)N(S(=O)(=O)c2ccc(OC)cc2)c2ccc(C#N)cc21 | +++ (>75)
COc1ncccc1[C@]1(NC(=O)N2CCC(C3CCN(C4COC4)CC3)CC2)C(=O)N(S(=O)(=O)c2ccc(F)cc2)c2ccc(C#N)cc21 | + (10-<25)
CCOc1ncccc1[C@]1(NC(=O)N2CCN(C3CCN(C4COC4)CC3)CC2)C(=O)N(S(=O)(=O)c2ccc(OC)cc2OC)c2ccc(C#N)cc21 | +++ (>75)
COc1ccc(S(=O)(=O)N2C(=O)[C@@](NC(=O)N3CCN(C4CCN(C5COC5)CC4)CC3)(c3cccnc3OC)c3cc(C#N)ccc32)nc1 | + (10-<25)
COc1ccc(S(=O)(=O)N2C(=O)[C@@](NC(=O)N3CCC(C4CCN(C5COC5)CC4)CC3)(c3cc(OC)ccc3OC)c3cc(C#N)ccc32)c(OC)c1 | + (10-<25)
CCOc1ncccc1[C@]1(NC(=O)N2CCC(N3CCN(C4COC4)CC3)CC2)C(=O)N(S(=O)(=O)c2ccc(OC)cc2)c2ccc(C#N)cc21 | +++ (>75)
CCOc1ncccc1[C@]1(NC(=O)N2CCN(C3CCN(CC4COC4)CC3)CC2)C(=O)N(S(=O)(=O)c2ccc(OC)cc2OC)c2ccc(C#N)cc21 | +++ (>75)
